TESTED_SYSTEM: hLPAR1 (Homo sapiens, UniProt Q92633)
Sequence (Q92633 whole entry): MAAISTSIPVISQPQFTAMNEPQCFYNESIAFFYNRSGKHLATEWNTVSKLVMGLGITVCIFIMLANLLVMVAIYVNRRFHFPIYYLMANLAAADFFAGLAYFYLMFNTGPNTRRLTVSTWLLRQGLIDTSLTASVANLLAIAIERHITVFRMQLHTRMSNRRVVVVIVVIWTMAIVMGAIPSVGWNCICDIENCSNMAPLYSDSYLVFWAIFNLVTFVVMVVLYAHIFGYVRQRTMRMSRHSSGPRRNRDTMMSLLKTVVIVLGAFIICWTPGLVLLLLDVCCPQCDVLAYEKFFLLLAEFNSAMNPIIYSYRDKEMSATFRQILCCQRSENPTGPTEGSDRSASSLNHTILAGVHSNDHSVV
MEASUREMENT_DESCRIPTION: Ca2+ Flux Assay (B103 cells stably expressing hLPAR1)
EXPERIMENTAL_CONDITIONS: LPA-induced calcium release, Fura-2 AM, compound 20 min at RT
pIC50: −log10 of the molar value.
We begin with a simple list: items and their reported pIC50.

These recorded examples may help you get a feel for the data.
Endpoint output: pIC50 of Cc1nsc(C2CCN(c3ccc(C4(C(=O)O)CC4)cc3)CC2)c1NC(=O)O[C@H](C)c1ccccc1 . Value? 6.70 to 8.00

Endpoint output: pIC50 of Cc1noc(C2CCN(c3ccc(C4(C(=O)O)CC4)cc3)CC2)c1NC(=O)OC1C2C[C@H]3C[C@@H](C2)C[C@@H]1C3 (stereo partly shown) . Value? 5.52 to 6.70

Endpoint output: pIC50 of COc1c(C)cc(NC(=O)O[C@H](C)c2ccccc2)c(C2CCN(c3ccc(C4(C(=O)O)CC4)cc3)CC2)c1C . Value? 5.52 to 6.70

Next:
Endpoint output: pIC50 of C[C@@H](OC(=O)Nc1c(C2CCN(c3ccc(C4(C(=O)NS(=O)(=O)CCC(=O)O)CC4)cc3)CC2)nnn1C)c1ccccc1 . Value? > 8.00

Endpoint output: pIC50 of C[C@@H](OC(=O)Nc1cc(Cl)sc1C1CCN(c2ccc(C3(C(=O)O)CC3)cc2)CC1)c1ccccc1 . Value? 6.70 to 8.00

Endpoint output: pIC50 of Cc1noc(C2CCN(c3ccc(C4(S(=O)(=O)O)CC4)cc3)CC2)c1NC(=O)O[C@H](C)c1ccccc1 . Value? > 8.00

Endpoint output: pIC50 of Cc1nnn(C2CCN(c3ccc(C4(C(=O)NS(=O)(=O)C(F)(F)F)CC4)cc3)CC2)c1NC(=O)O[C@H](C)c1ccccc1 . Value? 5.52 to 6.70

----------
TESTED_SYSTEM: BSEP (Homo sapiens, UniProt O95342)
Construct: ATP-dependent uptake of radiolabelled probe substrate
Sequence (O95342 whole entry): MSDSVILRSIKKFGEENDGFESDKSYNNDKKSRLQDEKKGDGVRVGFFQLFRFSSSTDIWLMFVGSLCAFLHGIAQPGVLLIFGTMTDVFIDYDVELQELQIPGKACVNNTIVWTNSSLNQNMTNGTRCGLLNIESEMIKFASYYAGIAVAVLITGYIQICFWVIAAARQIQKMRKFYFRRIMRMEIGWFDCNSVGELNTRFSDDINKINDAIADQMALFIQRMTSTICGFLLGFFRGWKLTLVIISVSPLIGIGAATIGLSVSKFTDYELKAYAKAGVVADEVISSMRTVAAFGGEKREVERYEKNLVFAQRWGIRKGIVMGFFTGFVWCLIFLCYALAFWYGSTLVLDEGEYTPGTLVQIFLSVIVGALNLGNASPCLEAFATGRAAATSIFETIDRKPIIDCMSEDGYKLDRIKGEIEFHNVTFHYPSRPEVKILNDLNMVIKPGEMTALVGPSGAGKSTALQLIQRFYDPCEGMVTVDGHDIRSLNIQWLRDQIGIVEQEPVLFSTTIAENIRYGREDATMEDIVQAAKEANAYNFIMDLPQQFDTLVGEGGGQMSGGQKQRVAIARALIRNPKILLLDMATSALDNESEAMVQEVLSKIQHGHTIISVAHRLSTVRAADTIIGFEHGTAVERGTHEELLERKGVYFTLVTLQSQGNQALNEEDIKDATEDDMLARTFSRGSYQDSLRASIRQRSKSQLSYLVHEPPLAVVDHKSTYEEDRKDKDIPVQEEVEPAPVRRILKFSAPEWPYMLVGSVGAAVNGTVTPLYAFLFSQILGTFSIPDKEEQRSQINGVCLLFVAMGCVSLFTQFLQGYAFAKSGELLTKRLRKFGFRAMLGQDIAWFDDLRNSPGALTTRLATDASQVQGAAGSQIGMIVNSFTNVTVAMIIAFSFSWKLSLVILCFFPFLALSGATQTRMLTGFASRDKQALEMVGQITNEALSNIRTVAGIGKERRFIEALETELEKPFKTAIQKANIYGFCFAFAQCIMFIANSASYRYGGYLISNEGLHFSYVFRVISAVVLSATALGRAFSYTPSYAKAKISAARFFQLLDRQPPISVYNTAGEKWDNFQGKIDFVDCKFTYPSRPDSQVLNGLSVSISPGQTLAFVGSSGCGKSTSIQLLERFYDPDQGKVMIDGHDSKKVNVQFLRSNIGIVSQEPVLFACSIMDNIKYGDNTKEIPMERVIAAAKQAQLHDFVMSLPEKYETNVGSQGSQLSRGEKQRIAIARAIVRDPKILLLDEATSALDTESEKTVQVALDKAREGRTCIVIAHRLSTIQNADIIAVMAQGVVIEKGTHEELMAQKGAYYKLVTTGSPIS
MEASUREMENT_DESCRIPTION: Bile Salt Export Pump (BSEP) Assay, Sf9 insect cell vesicles expressing BSEP
Assay type: in vitro ADME
EXPERIMENTAL_CONDITIONS: 10 μM test compound, probe substrate 1 μM [3H]-taurocholic acid, 15 min incubation
ENDPOINT_LABEL: inhibition at 0.25 h, 10 µM

These recorded examples may help you get a feel for the data.
Endpoint output: inhibition at 0.25 h, 10 µM of CCc1ccccc1[C@@H](C)OC(=O)Nc1c(C)noc1C1CCN(c2ccc(C3(C(=O)O)CC3)cc2)CC1 . Value? 50 to 75%

Endpoint output: inhibition at 0.25 h, 10 µM of Cc1noc([C@H]2CCN(c3ccc(C4(C(=O)O)CC4)cc3)[C@@H](C)C2)c1NC(=O)O[C@H](C)c1ccccc1 (single isomer, unassigned) . Value? 25 to 50%

Next:
Endpoint output: inhibition at 0.25 h, 10 µM of Cc1noc(C2CCN(c3ccc(C4(C(=O)NS(C)(=O)=O)CC4)cc3)CC2)c1NC(=O)O[C@H](C)c1ccccc1 . Value? 25 to 50%

----------
MEASUREMENT_DESCRIPTION: Liver microsomal stability, human
Type: in vitro ADME
EXPERIMENTAL_CONDITIONS: human liver microsomes; 30 min; percent of parent remaining; read-out: Liver Microsomal stability (%), % of remaining after 30 min, Human
ENDPOINT_LABEL: remaining at 0.5 h

These recorded examples may help you get a feel for the data.
Endpoint output: remaining at 0.5 h of Cc1noc(C2CCN(c3ccc(C4(C(=O)O)CC4)cc3)CC2)c1NC(=O)O[C@H](C)c1ccccc1 . Value? > 75%

Endpoint output: remaining at 0.5 h of Cc1noc([C@H]2CCN(c3ccc(C4(C(=O)O)CC4)cc3)[C@@H](C)C2)c1NC(=O)O[C@H](C)c1ccccc1 (single isomer, unassigned) . Value? > 75%

Endpoint output: remaining at 0.5 h of CCc1ccccc1[C@@H](C)OC(=O)Nc1c(C)noc1C1CCN(c2ccc(C3(C(=O)O)CC3)cc2)CC1 . Value? 25 to 50%

Endpoint output: remaining at 0.5 h of CCCN(C)C(=O)OCc1c(C)noc1C1CCN(c2ccc(C3(C(=O)NS(=O)(=O)C(F)(F)F)CC3)cc2)CC1 . Value? ≤ 25%

Moving on to the next compound.
Endpoint output: remaining at 0.5 h of Cc1nc(C2(C(=O)O)CC2)ccc1N1CCC(c2onc(C)c2NC(=O)O[C@H](C)c2ccccc2)CC1 . Value? > 75%

Where do the numbers come from? From patent US20260356824A1.
